B1: KCNAB2 (parent)
chain: SSIIHEIDSILGNKPYSKKDYRS

- Variants of: B1
- Assay comment: protein stability index of a GFP-peptide fusion (GPS, HEK-293T) (PSI 1-6); higher = more stable;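 also: lentivirally expressed fusions sorted by FACS into six bins by GFP to DsRed ratio, PSI derived from sequencing read proportions per bin multiplied by bin number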
- Applied conditions: c terminus: native
Readout name: protein stability index

Mutation code	Assay result
Y21S	1.08
L11P	4.19
Y21E	3.37
P15I	3.18
S1A	2.43
L11H	4.46

For each of the items listed, what is its protein stability index?
1. K14N
2. K19G
3. S23N
4. N13Y

a:
1. 3.22
2. 3.84
3. 4.49
4. 1.79

For each of the items listed, what is its protein stability index?
1. H5L
2. I7Y

a:
2.21
4.53

For each of the items listed, what is its protein stability index?
1. S1I
2. Y21D
3. E6S
4. H5M
5. Y21Q
6. I10N
7. Y16I
8. K14A

a:
1. 2.67
2. 4.07
3. 2.66
4. 1.76
5. 2.2
6. 4.38
7. 3.8
8. 2.62

For each of the items listed, what is its protein stability index?
1. I7M
2. K18I

a:
2.75
2.11
